- targetDesc: A. baumannii PBP1a (Acinetobacter baumannii, UniProt A0ABX6CK30)
- measurementNotes: Bocillin-FL fluorescence polarization competition binding assay, A. baumannii PBP1a
property: pEC50
As a rule, pEC50 stands for the negative log10 of the concentration, concentration in M.

Please fill in: pEC50 reported for C[C@@H](O)[C@H]1C(=O)N2C(C(=O)O)=C(S[C@@H]3CN[C@H](C(=O)N(C)C)C3)[C@H](C)[C@H]12 [meropenem, reference compound] = 6.64

###

- measurementNotes: Bocillin-FL fluorescence polarization competition binding assay, A. baumannii PBP3
- studyConditions: fluorescence polarization competition binding assay using Bocillin-FL; column 3; read-out: 4. baumannii PBP1a Potency
pEC50: −log10 of the molar value.
Provide the recorded pEC50 for the entries that follow.

Please fill in: pEC50 reported for O=C(O)c1ccc(C(NC(=O)N2CCN(CCNC(=O)c3ccc(O)c(O)c3Cl)C(=O)C2=O)C(=O)N[C@H]2Cc3ccc(F)c(C(=O)O)c3OB2O)cc1F (stereo partly drawn) = 4.52 to 5.00

Please fill in: pEC50 reported for NCCN1CCN(C(=O)N[C@@H](C(=O)N[C@H]2Cc3ccc(F)c(C(=O)O)c3OB2O)c2c(F)cc(O)c(O)c2F)C(=O)C1=O (single isomer, unassigned) = < 4.00

Please fill in: pEC50 reported for CCN1CCN(C(=O)N[C@@H](C(=O)N[C@H]2Cc3cccc(C(=O)O)c3OB2O)c2ccc(C(=O)O)cc2)C(=O)C1=O (single isomer, unassigned) = > 5.00

Please fill in: pEC50 reported for NC(C(=O)N[C@H]1Cc2ccc(F)c(C(=O)O)c2OB1O)c1c(F)cc(O)c(O)c1Cl (stereo partly drawn) = < 4.00

Please fill in: pEC50 reported for NS(=O)(=O)c1cc(O)cc(C(NC(=O)N2CCN(Cc3c(F)cc(O)c(O)c3Cl)C(=O)C2=O)C(=O)N[C@H]2Cc3cccc(C(=O)O)c3OB2O)c1 (stereo partly drawn) = > 5.00

Please fill in: pEC50 reported for O=C(O)c1ccc(C(NC(=O)c2ccc(O)c(O)c2Cl)C(=O)N[C@H]2Cc3cccc(C(=O)O)c3OB2O)cc1F (stereo partly drawn) = < 4.00
